molecular target: human 5-HT6 receptor (Homo sapiens, UniProt P50406); construct: host or cells: CHO-K1 cells, stably transfected; membranes prepared in house; assay: Human 5-HT6 Receptor Binding Assay ([3H]LSD displacement, scintillation beads); details: membranes of CHO-K1 cells with recombinant human 5-HT6, 4 nM [3H]LSD; Table 1, class symbols; read-out: h5-HT6 (Ki)
Sequence (P50406 whole entry): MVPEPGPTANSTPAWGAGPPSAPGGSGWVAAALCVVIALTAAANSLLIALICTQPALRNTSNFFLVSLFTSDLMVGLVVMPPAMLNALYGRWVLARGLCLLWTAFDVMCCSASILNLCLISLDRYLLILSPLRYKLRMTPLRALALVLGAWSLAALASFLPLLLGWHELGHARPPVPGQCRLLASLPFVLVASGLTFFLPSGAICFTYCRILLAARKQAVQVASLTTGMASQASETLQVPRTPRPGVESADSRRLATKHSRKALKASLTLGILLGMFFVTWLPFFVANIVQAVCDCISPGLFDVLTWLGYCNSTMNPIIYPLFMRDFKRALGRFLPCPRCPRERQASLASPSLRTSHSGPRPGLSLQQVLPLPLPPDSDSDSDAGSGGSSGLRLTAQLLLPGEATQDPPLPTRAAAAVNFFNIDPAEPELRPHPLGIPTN
pKi: −log10 of the molar value.
Documented pKi across a set of compounds

Consider the worked cases shown below.
- compound: "COc1cc(OC2CCCC2)cc(S(=O)(=O)c2ccc3c(c2)OC2CNCCC32)c1 (stereo not drawn)"
  pKi: "> 6.30"
- compound: "O=S(=O)(c1cccc(OC(F)(F)F)c1)c1ccc2oc3c(c2c1)CCNC3"
  pKi: "> 6.30"
- compound: "CC12CCNCC1Oc1ccc(OS(=O)(=O)c3cccc4cccnc34)cc12 (stereo not drawn)"
  pKi: "< 6.00"
- compound: "O=S(=O)(c1cccc(OCc2ccncc2)c1)c1ccc2c(c1)OC1CNCCC21 (stereo not drawn)"
  pKi: "> 6.30"
- compound: "O=S(=O)(c1ccccc1)c1ccc2c(c1)OC1CNCCC21 (stereo not drawn) [Example 321]"
  pKi: "> 6.30"

Ask: Fill blank: measured pKi of the compound O=S(=O)(Oc1ccc2c(c1)C1CCNCC1O2)c1ccc(Oc2ccccc2)nc1 (stereo not drawn) is ____.
Reply: < 6.00

Ask: Fill blank: measured pKi of the compound O=S(=O)(c1ccc(F)c(Cl)c1)c1ccc2c(c1)OC1CNCCC21 (stereo not drawn) is ____.
Reply: > 6.30

Ask: Fill blank: measured pKi of the compound [O-][S+](c1ccc2c(c1)OC1CNCCC21)c1cccc(F)c1F (stereo not drawn) is ____.
Reply: > 6.30

Ask: Fill blank: measured pKi of the compound O=S(=O)(c1cccc(OC(F)(F)F)c1)c1ccc2c(c1)OC1CNCCC21 (stereo not drawn) [Example 149] is ____.
Reply: > 6.30
